B1: FLAG-tagged FBXO44 FBA domain (FBXO44^FBA) [human] / RGS2^5–16 peptide (RGS2 degron, Met^5–Met^16) [not stated] (parent complex)
chain 1: FYFLRSLHRNLLHNPCAEEGFEFWSLDVNGGDEWKVEDLSRDQRKEFPNDQVKKYFVTSYYTCLKSQVVDLKAEGYWEELMDTTRPDIEVKDWFAARPDCGSKYQLCVQLLSSAHAPLGTFQPDPATIQQKSDAKWREVSHTFSNYPPGVRYIWFQHGGVDTHYWAGWYGPRVTNSSITIGP
chain 2: MFLAVQHDCRPM

variants of: B1; experiment: peptide microarray (PEPperPRINT), α-FLAG fluorescence; three independent experiments with three technical replicates each; parent: 100; read off a plot
Parameter: percent of parent. Scope: all listed entries.

In: Would you mind telling me what percent of parent value was observed for chain 2 C9R ?
Out: ~130 % Parent

In: Suppose we examine the variant chain 2 C9I ; what percent of parent value has been reported?
Out: ~15 % Parent

In: Which measured percent of parent value corresponds to chain 2 C9P ?
Out: ~15 % Parent

In: Returns the measured percent of parent for the input variant. Input: chain 2 C9N
Out: ~15 % Parent

In: Requested read-out: percent of parent. Entry: chain 2 C9L
Out: ~13 % Parent
